// values below are reported IC50
target: human TTK (Homo sapiens, UniProt P33981); construct: amino terminal GST fusion of full length human TTK; purchased Invitrogen; experiment: TTK inhibition assay (indirect ELISA); type: biochemical; conditions: read-out: TTK IC50 Range

Worked cases, IC50 given:
> print(dat)
                                   molecule                             system.tested  metric  meas.value
1  CC(C)[C@H](NC(=O)c1ccc2[nH]nc(-c3ccc(N4C5COCC4CC(O)C5)cc3)c2c1)c1ccccc1Cl (stereo partly shown)  human TTK (Homo sapiens, UniProt P33981)    IC50    < 100 nM
2  O=C(N[C@H](c1ccccn1)C1CC1)c1ccc2[nH]nc(-c3ccc4c(c3)C(=O)CC3(CCOCC3)O4)c2c1  human TTK (Homo sapiens, UniProt P33981)    IC50    < 100 nM
3  CCC(CC)(CNC(=O)c1ccc2[nH]nc(-c3ccc(N4CCOCC4)cc3)c2c1)c1ccccc1  human TTK (Homo sapiens, UniProt P33981)    IC50    < 100 nM

Ask: Field request: IC50 | item: O=C(N[C@H](c1ccccn1)C1CC1)c1ccc2[nH]nc(-c3ccc(OC4CCN(C[C@@H](O)C(F)(F)F)CC4)cc3)c2c1
Reply: < 100 nM

Ask: What about CN1[C@@H]2CC[C@H]1C[C@@H](Oc1ccc(-c3n[nH]c4ccc(C(=O)NC(c5ccccc5)C(F)F)cc34)cc1)C2 (stereo partly shown) ?
Reply: < 100 nM

Ask: Repeat with O=C(N[C@H](c1ccccn1)C1CC1)c1ccc2[nH]nc(-c3ccc(N4[C@@H]5CC[C@H]4COC5)cc3)c2c1
Reply: < 100 nM

Ask: Same again, this time with CC(C)C[C@H](NC(=O)c1ccc2[nH]nc(-c3ccc(OC4CCN(C5COC5)CC4)cc3)c2c1)c1ccccc1Cl
Reply: < 100 nM

###

test system: TICs (Ovarian 2393A); test: Ovarian tumor-initiating cell growth inhibition (Alamar Blue); assay type: cell-based; conditions: 144 h; Ovarian 2393A TICs, 6 days; read-out: Tumor Initiating Cell GI50 Range Ovarain 2393A
metric: GI50

// solved cases for GI50 follow
> print(dat)
                                   compound     meas.value
1  CC(C)C[C@H](NC(=O)c1ccc2[nH]nc(-c3ccc(OC4CC5CCC(C4)N5C=O)cc3)c2c1)c1ccccn1 (stereo partly shown)       < 100 nM
2  CC(C)[C@H](NC(=O)c1ccc2[nH]nc(-c3ccc(N4CC(C5COC5)C4)cc3)c2c1)c1ccccc1Cl       < 100 nM
3  O=C(NC(c1ccsc1)C1CCC1)c1ccc2[nH]nc(-c3ccc(O[C@H]4C[C@H]5CC[C@@H](C4)N5C4COC4)cc3)c2c1 (stereo partly shown)       < 100 nM
4  O=C(N[C@H](c1ccccn1)C1CCCC1)c1ccc2[nH]nc(-c3ccc(N4CC(C5COC5)C4)cc3)c2c1       < 100 nM
5  CCC[C@H](NC(=O)c1ccc2[nH]nc(-c3ccc(OC4CC5CCC(C4)N5C=O)cc3)c2c1)c1ccccc1 (stereo partly shown)  100 to 500 nM

Ask: Value wanted: GI50 (TICs (Ovarian 2393A)) of entry O=C(N[C@H](c1ccccn1)C1CCCC1)c1ccc2[nH]nc(-c3ccc(N4CCCN(C5COC5)CC4)cc3)c2c1
Reply: 100 to 500 nM

Ask: Another compound to check: C[C@@H](O)CN1CCC(Oc2ccc(-c3n[nH]c4ccc(C(=O)N[C@@H](c5ccsc5)C5CCCC5)cc34)cc2)CC1
Reply: 100 to 500 nM

###

Target: human TTK (Homo sapiens, UniProt P33981)
Construct: amino terminal GST fusion of full length human TTK; purchased Invitrogen
Sequence (P33981 1-857): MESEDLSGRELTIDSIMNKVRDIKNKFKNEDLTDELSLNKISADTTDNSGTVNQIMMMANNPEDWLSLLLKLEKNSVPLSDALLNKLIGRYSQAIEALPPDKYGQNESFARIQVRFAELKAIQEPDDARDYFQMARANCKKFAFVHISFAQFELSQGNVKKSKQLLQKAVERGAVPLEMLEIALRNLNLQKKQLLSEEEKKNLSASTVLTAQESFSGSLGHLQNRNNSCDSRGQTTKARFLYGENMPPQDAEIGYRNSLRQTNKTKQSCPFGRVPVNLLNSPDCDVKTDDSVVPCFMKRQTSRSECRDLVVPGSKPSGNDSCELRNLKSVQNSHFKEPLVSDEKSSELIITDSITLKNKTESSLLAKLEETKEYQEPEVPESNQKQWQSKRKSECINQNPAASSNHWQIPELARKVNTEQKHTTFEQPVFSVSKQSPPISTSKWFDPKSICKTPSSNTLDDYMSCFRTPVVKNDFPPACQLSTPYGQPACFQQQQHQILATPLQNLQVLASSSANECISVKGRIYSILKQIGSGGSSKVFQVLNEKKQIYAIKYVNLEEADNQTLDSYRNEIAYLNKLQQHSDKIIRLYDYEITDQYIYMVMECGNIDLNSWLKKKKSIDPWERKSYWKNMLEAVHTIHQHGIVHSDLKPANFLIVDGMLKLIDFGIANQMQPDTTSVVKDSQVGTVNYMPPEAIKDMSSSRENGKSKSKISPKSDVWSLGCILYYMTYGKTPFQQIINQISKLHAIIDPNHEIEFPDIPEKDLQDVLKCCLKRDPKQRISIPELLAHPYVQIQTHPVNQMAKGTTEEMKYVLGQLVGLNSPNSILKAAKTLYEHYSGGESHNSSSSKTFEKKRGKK
Assay: TTK inhibition assay (indirect ELISA)
Format: biochemical
Conditions: read-out: TTK IC50 Range
metric: IC50

Example entries begin here.
compound	IC50
CC(C)[C@@H](NC(=O)c1ccc2[nH]nc(-c3ccc(N4CC(N5CCOCC5)C4)cc3)c2c1)c1ccccc1Cl [Example A317]	< 0.1 µM
O=C(NC(c1ccccc1)C1CC1)c1ccc2[nH]nc(-c3ccc(O[C@H]4C[C@H]5CC[C@@H](C4)N5C4COC4)cc3)c2c1 (stereo partly shown) [Example A321]	< 0.1 µM
CC(C)[C@H](NC(=O)c1ccc2[nH]nc(-c3ccc(OC4CCN(C)CC4)cc3)c2c1)c1ccccc1Cl [Example A273]	< 0.1 µM
COCCN1CCC(Oc2ccc(-c3n[nH]c4ccc(C(=O)N[C@H](c5cccs5)C5CC5)cc34)cc2)CC1 [Example A163]	< 0.1 µM
CCC(CC)(CNC(=O)c1ccc2[nH]nc(-c3ccc(OC4CCN(C)CC4)cc3)c2c1)c1ccccc1 [Example A440]	< 0.1 µM
O=C(N[C@@H](c1ccsc1)C1CCCC1)c1ccc2[nH]nc(-c3ccc(OC4CCN(CCO)CC4)cc3)c2c1 [Example A219]	< 0.1 µM

Okay, next one:
Ask: GET /values?readout=IC50&item= O=C(N[C@H](c1ccccn1)C1CCCC1)c1ccc2[nH]nc(-c3ccc(N4CCCN(C5COC5)CC4)cc3)c2c1 [Example A370]
Reply: < 0.1 µM

###

molecular target: human TTK (Homo sapiens, UniProt P33981); construct: amino terminal GST fusion of full length human TTK; purchased Invitrogen; experiment: TTK inhibition assay (indirect ELISA); assay type: biochemical; settings: read-out: TTK IC50 Range
pIC50: −log10 of the molar value.
metric: pIC50

Past entries and their recorded results:
> print(dat)
                                     smiles                             system.tested  metric  meas.value
1  CC1=CC2(CCN(C)CC2)Oc2ccc(-c3n[nH]c4ccc(C(=O)N[C@H](c5ccccn5)C5CCCC5)cc34)cc21  human TTK (Homo sapiens, UniProt P33981)   pIC50      > 7.00
2  O=C(NCC1(c2ccccc2)CCOCC1)c1ccc2[nH]nc(-c3ccc(N4[C@@H]5COC[C@H]4C[C@@H](O)C5)cc3)c2c1  human TTK (Homo sapiens, UniProt P33981)   pIC50      > 7.00

Ask: Notebook entry, human TTK (Homo sapiens, UniProt P33981) assay: pIC50 of CC(C)C[C@H](NC(=O)c1ccc2[nH]nc(-c3ccc(N4CC(N5CCOCC5)C4)cc3)c2c1)c1ccccc1 = ?
Reply: > 7.00

###

This section presents molecules with their documented IC50 values.
biological target: human TTK (Homo sapiens); construct: amino terminal GST fusion of full length human TTK; purchased Invitrogen; experiment: TTK inhibition assay (indirect ELISA); type: biochemical; conditions: read-out: TTK IC50 Range

Ask: Name the recorded IC50 for CN1CCC(Oc2ccc(-c3n[nH]c4ccc(C(=O)NCC5(N6CCOCC6)CCC5)cc34)cc2)CC1 [Example A479] .
Reply: 100 to 500 nM

Ask: Next record, please: O=C(NCC1(N2CCC(F)CC2)CCCCC1)c1ccc2[nH]nc(-c3ccc(N4CCOCC4)cc3)c2c1 [Example A456]
Reply: 100 to 500 nM

Ask: Do the same for Cc1cc(=O)n(C)c2ccc(-c3n[nH]c4ccc(C(=O)N[C@H](c5ccccn5)C5CCCC5)cc34)cc12 [Example A239] please
Reply: < 100 nM
